Here the recorded inhibition at 1 µM is given for each entry.
- system: hNAMPT protein (Homo sapiens (Human), UniProt P43490)
- Sequence (P43490 whole entry): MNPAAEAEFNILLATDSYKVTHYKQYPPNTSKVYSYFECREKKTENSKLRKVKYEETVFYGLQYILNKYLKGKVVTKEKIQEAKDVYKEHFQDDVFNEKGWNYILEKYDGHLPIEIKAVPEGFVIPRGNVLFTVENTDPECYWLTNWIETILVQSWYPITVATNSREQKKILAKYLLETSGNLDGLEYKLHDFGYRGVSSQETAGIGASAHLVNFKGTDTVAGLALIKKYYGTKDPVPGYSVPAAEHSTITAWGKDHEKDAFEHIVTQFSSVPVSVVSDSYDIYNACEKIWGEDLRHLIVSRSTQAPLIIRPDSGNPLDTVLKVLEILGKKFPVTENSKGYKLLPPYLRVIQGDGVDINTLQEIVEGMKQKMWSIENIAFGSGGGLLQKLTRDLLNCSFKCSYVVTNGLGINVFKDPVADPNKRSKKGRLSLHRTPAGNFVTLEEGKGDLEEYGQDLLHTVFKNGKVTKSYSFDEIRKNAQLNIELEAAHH
- test-name: NAMPT enzyme assay (TR-FRET/HTRF, BodiPY ligand, anti 6His-Tb)
- Assay type: binding
- applied-conditions: compound concentration 1 μM; read-out: Percent Inhibition
Field: numeric (%). Do not append units.

// below: answered compounds
INSERT INTO assay_data (compound, system, property_name, unit_abbrev, recorded_number) VALUES
  ('O=C(NCCCc1ncc[nH]1)c1ccc2nc(OCC3CC(F)(F)C3)c(-c3ccc(F)cc3)nc2c1 [Compound I-316]', 'hNAMPT protein (Homo sapiens (Human), UniProt P43490)', 'inhibition at 1 µM', '%', 98),
  ('O=C(NCCCc1ncc[nH]1)c1ccc2nc(OC3CCCCC3)c(-c3ccc(Cl)cc3)nc2c1 [Compound I-216]', 'hNAMPT protein (Homo sapiens (Human), UniProt P43490)', 'inhibition at 1 µM', '%', 91),
  ('Cn1cc2c(n1)OCCN(C(=O)c1ccc3nc(-c4ccc(F)cc4)c(-c4ccc(F)cc4)nc3c1)C2 [Compound I-68]', 'hNAMPT protein (Homo sapiens (Human), UniProt P43490)', 'inhibition at 1 µM', '%', 16),
  ('O=C(NCCCc1ncc[nH]1)c1ccc2nc(-n3nccn3)c(-c3ccc(F)cc3)nc2c1 [Compound I-330]', 'hNAMPT protein (Homo sapiens (Human), UniProt P43490)', 'inhibition at 1 µM', '%', 79),
  ('O=C(NCCCn1ccnc1)c1ccc2nc(N3CCC4(COC4)C3)c(-c3ccccc3)nc2c1 [Compound I-243]', 'hNAMPT protein (Homo sapiens (Human), UniProt P43490)', 'inhibition at 1 µM', '%', 62),
  ('O=C(NCCc1ncc[nH]1)c1ccc2nc(Cl)c(-c3ccc(F)cc3)nc2c1 [Compound I-102]', 'hNAMPT protein (Homo sapiens (Human), UniProt P43490)', 'inhibition at 1 µM', '%', 38),
  ('COc1cc(-c2nc3cc(C(=O)NCc4ccc5nccn5c4)ccc3nc2-c2ccc(F)cc2)c(F)cn1 [Compound I-333]', 'hNAMPT protein (Homo sapiens (Human), UniProt P43490)', 'inhibition at 1 µM', '%', 63),
  ('O=C(NCCCn1ccnc1)c1ccc2nc(N3CCC(N4CCCC4=O)CC3)c(-c3ccccc3)nc2c1 [Compound I-136]', 'hNAMPT protein (Homo sapiens (Human), UniProt P43490)', 'inhibition at 1 µM', '%', 83),
  ('O=C(NCCCc1ncc[nH]1)c1ccc2nc(-n3ccnc3)c(-c3ccc(F)cc3)nc2c1 [Compound I-324]', 'hNAMPT protein (Homo sapiens (Human), UniProt P43490)', 'inhibition at 1 µM', '%', 57),
  ('O=C(NCCCn1ccnc1)c1ccc2nc(-c3cccc(Cl)c3)c(-c3ccccc3)nc2c1 [Compound I-209]', 'hNAMPT protein (Homo sapiens (Human), UniProt P43490)', 'inhibition at 1 µM', '%', 74);

Suppose we examine the compound O=C(c1ccc2nc(-c3ccc(F)cc3)c(-c3ccc(F)cc3)nc2c1)N1CCc2[nH]ncc2C1 [Compound I-225] ; what inhibition at 1 µM value has been reported? 14

Try CCOC(=O)CCc1ccc(-c2nc3cc(C(=O)NCCCn4ccnc4)ccc3nc2-c2ccccc2)cc1 [Compound I-171] next. 27

Try O=C(c1ccc2nc(-c3ccc(F)cc3)c(-c3ccc(F)cc3)nc2c1)N1CCc2cnccc2C1 [Compound I-160] next. 45

Try CN(CCn1ccnc1)C(=O)c1ccc2nc(-c3ccc(F)cc3)c(-c3ccc(F)cc3)nc2c1 [Compound I-279] next. 13

Try O=C(NCc1ccc2nccn2c1)c1ccc2nc(N3CCCCC3)c(-c3ccc(F)cc3)nc2c1 [Compound I-170] next. 98

Try O=C(NCCCc1ncc[nH]1)c1ccc2nc(OCc3ccc(Cl)cc3)c(-c3ccc(F)cc3)nc2c1 [Compound I-364] next. 73
